# Assay method text: Toxicity liver stage against HepG2, at 10uM
# Assay type: cell-based
# Set-up: test concentration 10 uM, cell line HepG2-A16-CD81EGFP
# Assay setup: human, HepG2-A16-CD81EGFP cells; read-out: INHIBITION

[
  {
    "Compound": "COC(=O)CNC(=O)c1nc(-c2ccccc2OC)c2cnccn12",
    "cytotoxicity at 10 µM [%]": 8.6
  },
  {
    "Compound": "O=C(NCCCN1CCN(c2ncccn2)CC1)NCC1CCOC1 (centres undefined)",
    "cytotoxicity at 10 µM [%]": -56.6
  },
  {
    "Compound": "Cc1nc(N(C)C2CCCCC2)ncc1C(C)NC(=O)c1cccnc1 (centres undefined)",
    "cytotoxicity at 10 µM [%]": -105
  },
  {
    "Compound": "COC(=O)[C@@H](NC(=O)Nc1ccc(C(C)=O)cc1)C(C)C",
    "cytotoxicity at 10 µM [%]": 10.1
  },
  {
    "Compound": "CN(CCCNS(=O)(=O)N1CCC2(CC1)OCCO2)c1ccccc1",
    "cytotoxicity at 10 µM [%]": 9.13
  },
  {
    "Compound": "Cc1nc(C)c(C(=O)N(C)Cc2cnn(C)c2)s1",
    "cytotoxicity at 10 µM [%]": -1.57
  },
  {
    "Compound": "CN1[C@@H](C(=O)NCC2CC2)C[C@@H]2CN(Cc3ccoc3)C[C@@H]21",
    "cytotoxicity at 10 µM [%]": 3.88
  },
  {
    "Compound": "CN(C)C(=O)N1CCN(Cc2cnc(-c3ccsc3)s2)CC1",
    "cytotoxicity at 10 µM [%]": 2.03
  },
  {
    "Compound": "O=C(c1ncoc1C1CCCO1)N1CC2(CCCC2)c2ccccc21 (centres undefined)",
    "cytotoxicity at 10 µM [%]": 3.13
  },
  {
    "Compound": "Cc1nc(C)n(C2CCCN(C(=O)c3ccc4nccn4c3)C2)n1 (centres undefined)",
    "cytotoxicity at 10 µM [%]": -12
  },
  {
    "Compound": "O=C(CCn1cccn1)N1CCN(CC(F)F)CC1",
    "cytotoxicity at 10 µM [%]": -5.11
  },
  {
    "Compound": "COc1cc(C(=O)N(C)Cc2nccn2CC(F)(F)F)ccc1C",
    "cytotoxicity at 10 µM [%]": -4.24
  },
  {
    "Compound": "Cc1nn(CC(=O)Nc2ccon2)c(C)c1Br",
    "cytotoxicity at 10 µM [%]": 9.62
  },
  {
    "Compound": "CC(C)c1nnc2n1CCN(C(=O)c1ccc3c(c1)NC(=O)CO3)C2",
    "cytotoxicity at 10 µM [%]": 7.07
  },
  {
    "Compound": "CC(C(=O)NCc1ccnc(N2CCCC2)c1)n1cncn1 (centres undefined)",
    "cytotoxicity at 10 µM [%]": -3.43
  },
  {
    "Compound": "Cc1ccccc1CN(C)Cc1nc2c(cnn2C)c(=O)[nH]1",
    "cytotoxicity at 10 µM [%]": 2.51
  },
  {
    "Compound": "Cc1cc(CNc2ccnn2CC(C)C)ccc1-n1cncn1",
    "cytotoxicity at 10 µM [%]": 24
  },
  {
    "Compound": "CNC(=O)c1nc(CC(=O)Nc2cccc(C(F)(F)F)c2)no1",
    "cytotoxicity at 10 µM [%]": -6.96
  },
  {
    "Compound": "Cc1ccsc1CCNC(C)C(=O)NC1CCCC1 (centres undefined)",
    "cytotoxicity at 10 µM [%]": -4.44
  },
  {
    "Compound": "CC(CN1CCOCC1)n1cncc1-c1cnn(Cc2ccccc2)c1 (centres undefined)",
    "cytotoxicity at 10 µM [%]": 6.33
  },
  {
    "Compound": "CC(C)NC(=O)N1CC[C@H]2[C@H]1CCN2c1ncccn1",
    "cytotoxicity at 10 µM [%]": -0.155
  },
  {
    "Compound": "O=C1CCCCCN1CCC(=O)N1CCCC(c2ccn[nH]2)C1 (centres undefined)",
    "cytotoxicity at 10 µM [%]": 9.01
  },
  {
    "Compound": "CN(Cc1cccc(C(F)(F)F)c1)Cc1nc(-c2cnccn2)no1",
    "cytotoxicity at 10 µM [%]": 1.35
  },
  {
    "Compound": "NC(=O)c1ccc(-c2nc3c(c(=O)[nH]2)CCNC3)cc1",
    "cytotoxicity at 10 µM [%]": 1.37
  }
]
